- System: K562
- TEST DETAILS: Antiproliferative activity against human K562 cells after 48 hrs by MTT assay
- Format: functional, cell-based
- ASSAY SETUP: K562, 48 h
// reported IC50 per item
READOUT LABEL: IC50 (µM)

chem_smiles=COc1ccc2c(-c3ccc(OCCN4CCCCC4)cc3)c(-c3ccccc3)c(=O)oc2c1 assay_system=K562 readout_label=IC50 measurement_qualifier== experimental_value=19.6
chem_smiles=O=c1oc2cc(OCCN3CCCC3)ccc2c(-c2ccc(OCCN3CCCC3)cc2)c1-c1ccc(OCCN2CCCC2)cc1 assay_system=K562 readout_label=IC50 measurement_qualifier== experimental_value=75.3
chem_smiles=O=c1oc2cc(OCCN3CCCCC3)ccc2c(-c2ccc(OCCN3CCCCC3)cc2)c1-c1ccc(OCCN2CCCCC2)cc1 assay_system=K562 readout_label=IC50 measurement_qualifier== experimental_value=39.4
chem_smiles=O=c1oc2cc(OCCN3CCCCC3)ccc2c(-c2ccc(OCCN3CCCCC3)cc2)c1-c1ccccc1 assay_system=K562 readout_label=IC50 measurement_qualifier== experimental_value=2.91
chem_smiles=O=c1oc2cc(O)ccc2c(-c2ccc(O)cc2)c1-c1ccc(O)cc1 assay_system=K562 readout_label=IC50 measurement_qualifier=> experimental_value=100

Origin of the recorded values: ChEMBL document CHEMBL2412973
